- experiment.summary: Toxicity in Pseudoalteromonas lipolytica TC8 assessed as effect on viability at 100 uM after 6 hrs by resazurin-staining assay relative to control
assay.endpoint: Activity

>>> print(df.to_string())
                                   compound  recorded_result
0  COc1ccc(CCn2cc(C(=O)NCCc3cc(Br)c(O)c(Br)c3)nn2)cc1Br        Non-toxic
1  O=C(NCCc1ccc(O)cc1)c1cn(CCc2ccc(O)cc2)nn1        Non-toxic
2  O=C(NCCc1ccc(O)cc1)c1cn(CCc2ccc(O)c(Br)c2)nn1        Non-toxic
3  COc1ccc(Cn2cc(C(=O)NCCc3ccc(O)cc3)nn2)cc1Br        Non-toxic
4  CC1(C)S[C@@H]2[C@H](NC(=O)[C@H](N)c3ccccc3)C(=O)N2[C@H]1C(=O)O [AMPICILLIN]            Toxic
5  O=C(NCCc1cc(Br)c(O)c(Br)c1)c1cn(CCc2cc(Br)c(O)c(Br)c2)nn1        Non-toxic
6  COc1ccc(CCn2cc(C(=O)NCCc3ccc(O)cc3)nn2)cc1Br        Non-toxic
7  COc1ccc(Cn2cc(C(=O)NCCc3cc(Br)c(O)c(Br)c3)nn2)cc1Br        Non-toxic

###

- System: Pseudoalteromonas ulvae
- experiment.summary: Antibiofilm activity against Pseudoalteromonas ulvae TC14 assessed as microbial adhesion at 200 uM after 15 hrs by Syto61 based-fluorescence analysis relative to control
- Type: functional
assay.endpoint: Activity

In [3]: df
Out[3]:
                                 mol_smiles  recorded_result
0  COc1ccc(CCn2cc(C(=O)NCCc3cc(Br)c(O)c(Br)c3)nn2)cc1Br             5.9%
1  COc1ccc(Cn2cc(C(=O)NCCNC(=N)N)nn2)cc1Br.O=C(O)C(F)(F)F             >75%
2  O=C(NCCc1cnc[nH]1)c1cn(CCc2ccc(O)cc2)nn1             >75%
3  COc1ccc(CCn2cc(C(=O)NCCN)nn2)cc1Br.O=C(O)C(F)(F)F             >75%
4  COc1ccc(Cn2cc(C(=O)NCCCCN)nn2)cc1Br.O=C(O)C(F)(F)F             >75%

###

Listed compounds paired with reported Activity
- Tested on: Paracoccus sp.
- experiment.summary: Antibiofilm activity against Paracoccus sp. 4M6 assessed as microbial adhesion at 200 uM after 15 hrs by Syto61 based-fluorescence analysis relative to control
- Format: functional
assay.endpoint: Activity (%)

>>> print(df.to_string())
                                 mol_smiles  assay_endpoint  relation_qualifier  recorded_result
0  O=C(NCCc1cnc[nH]1)c1cn(CCc2ccc(O)cc2)nn1        Activity                   >               75
1  COc1ccc(Cn2cc(C(=O)NCCN)nn2)cc1Br.O=C(O)C(F)(F)F        Activity                   >               75
2  COc1ccc(Cn2cc(C(=O)NCCc3cc(Br)c(O)c(Br)c3)nn2)cc1Br        Activity                   =             37.9
3  COc1ccc(CCn2cc(C(=O)NCCCN)nn2)cc1Br.O=C(O)C(F)(F)F        Activity                   >               75
4  COc1ccc(Cn2cc(C(=O)NCCc3ccc(O)cc3)nn2)cc1Br        Activity                   =             31.2
5  O=C(NCCc1ccc(O)cc1)c1cn(CCc2ccc(O)c(Br)c2)nn1        Activity                   =             43.4
6  COc1ccc(CCn2cc(C(=O)NCCCNC(=N)N)nn2)cc1Br.O=C(O)C(F)(F)F        Activity                   >               75
7  COc1ccc(CCn2cc(C(=O)NCCc3cnc[nH]3)nn2)cc1Br        Activity                   >               75
8  COc1ccc(CCn2cc(C(=O)NCCNC(=N)N)nn2)cc1Br.O=C(O)C(F)(F)F        Activity                   >               75
9  O=C(NCCc1ccc(O)cc1)c1cn(CCc2ccc(O)cc2)nn1        Activity                   =             44.5

###

- System: Pseudoalteromonas ulvae
- experiment.summary: Antibiofilm activity against Pseudoalteromonas ulvae TC14 assessed as microbial adhesion at 200 uM after 15 hrs by Syto61 based-fluorescence analysis relative to control
- Type: functional
assay.endpoint: Activity

>>> df
                                  mol_smiles  assay_endpoint  recorded_result
 0  COc1ccc(CCn2cc(C(=O)NCCCCN)nn2)cc1Br.O=C(O)C(F)(F)F        Activity             >75%
 1  CC1(C)S[C@@H]2[C@H](NC(=O)[C@H](N)c3ccccc3)C(=O)N2[C@H]1C(=O)O        Activity             4.9%
 2  O=C(NCCc1cnc[nH]1)c1cn(CCc2ccc(O)c(Br)c2)nn1        Activity             >75%
 3  COc1ccc(Cn2cc(C(=O)NCCc3cnc[nH]3)nn2)cc1Br        Activity             >75%
 4  COc1ccc(Cn2cc(C(=O)NCCCN)nn2)cc1Br.O=C(O)C(F)(F)F        Activity             >75%
 5  COc1ccc(CCn2cc(C(=O)NCCNC(=N)N)nn2)cc1Br.O=C(O)C(F)(F)F        Activity             >75%
 6  COc1ccc(Cn2cc(C(=O)NCCc3ccc(O)cc3)nn2)cc1Br        Activity            20.7%
 7  O=C(NCCc1cc(Br)c(O)c(Br)c1)c1cn(CCc2cc(Br)c(O)c(Br)c2)nn1        Activity            29.3%
 8  COc1ccc(Cn2cc(C(=O)NCCCCNC(=N)N)nn2)cc1Br.O=C(O)C(F)(F)F        Activity             >75%
 9  COc1ccc(CCn2cc(C(=O)NCCCNC(=N)N)nn2)cc1Br.O=C(O)C(F)(F)F        Activity             >75%
10  COc1ccc(Cn2cc(C(=O)NCCc3cc(Br)c(O)c(Br)c3)nn2)cc1Br        Activity            23.3%
11  O=C(NCCc1ccc(O)cc1)c1cn(CCc2ccc(O)c(Br)c2)nn1        Activity            31.4%
12  O=C(NCCc1ccc(O)cc1)c1cn(CCc2ccc(O)cc2)nn1        Activity              16%
13  COc1ccc(CCn2cc(C(=O)NCCCCNC(=N)N)nn2)cc1Br.O=C(O)C(F)(F)F        Activity             >75%
14  COc1ccc(Cn2cc(C(=O)NCCN)nn2)cc1Br.O=C(O)C(F)(F)F        Activity             >75%
15  COc1ccc(CCn2cc(C(=O)NCCc3ccc(O)cc3)nn2)cc1Br        Activity            18.7%
16  COc1ccc(CCn2cc(C(=O)NCCCN)nn2)cc1Br.O=C(O)C(F)(F)F        Activity             >75%
17  COc1ccc(Cn2cc(C(=O)NCCCNC(=N)N)nn2)cc1Br.O=C(O)C(F)(F)F        Activity             >75%
18  COc1ccc(CCn2cc(C(=O)NCCc3cnc[nH]3)nn2)cc1Br        Activity             >75%

The measurements presented in this section are drawn from ChEMBL document CHEMBL3739258.
